Test system: NCI-H1650
test: relative viability (nuclei count vs DMSO), 5 days (fraction); higher = more cells survive
measurement parameters: first compound 8 µM
quantity: relative viability
Please reply with the value in numeric form only.

relative viability measured on O=c1[nH]c2ccccc2n1C1CCN(CCCC(c2ccc(F)cc2)c2ccc(F)cc2)CC1 [Pimozide] + CS(=O)(=O)CCNCc1ccc(-c2ccc3ncnc(Nc4ccc(OCc5cccc(F)c5)c(Cl)c4)c3c2)o1 [Lapatinib] (partner 2 µM) = 0.146

***
relative viability measured on O=c1[nH]c2ccccc2n1C1CCN(CCCC(c2ccc(F)cc2)c2ccc(F)cc2)CC1 [Pimozide] + COc1cccc2cc(-c3nc([C@H]4CC[C@H](C(=O)O)CC4)n4ncnc(N)c34)[nH]c12 [OSI-027] (partner 0.5 µM) = 0.437

relative viability measured on O=c1[nH]c2ccccc2n1C1CCN(CCCC(c2ccc(F)cc2)c2ccc(F)cc2)CC1 [Pimozide] + CC1(C)CCC(c2ccc(Cl)cc2)=C(CN2CCN(c3ccc(C(=O)NS(=O)(=O)c4ccc(N[C@H](CCN5CCOCC5)CSc5ccccc5)c(S(=O)(=O)C(F)(F)F)c4)cc3)CC2)C1 [Navitoclax] (partner 0.5 µM) = 0.761

relative viability measured on O=c1[nH]c2ccccc2n1C1CCN(CCCC(c2ccc(F)cc2)c2ccc(F)cc2)CC1 [Pimozide] + C[C@@H](Oc1cc(-c2cnn(C3CCNCC3)c2)cnc1N)c1c(Cl)ccc(F)c1Cl [Crizotinib] (partner 1 µM) = 0.835

----------
Tested on: NCI-H3122
test: relative viability (nuclei count vs DMSO), 5 days (fraction); higher = more cells survive
measurement parameters: first compound 0.08 µM
quantity: relative viability
Please reply with the value in numeric form only.

relative viability measured on O=c1[nH]c2ccccc2n1C1CCN(CCCC(c2ccc(F)cc2)c2ccc(F)cc2)CC1 [Pimozide] + COc1cccc2cc(-c3nc([C@H]4CC[C@H](C(=O)O)CC4)n4ncnc(N)c34)[nH]c12 [OSI-027] (partner 0.5 µM) = 1.01

// below: relative viability requested for another compound
relative viability measured on Cc1cnc(-c2cnc(NCCNc3ccc(C#N)cn3)nc2-c2ccc(Cl)cc2Cl)[nH]1 + Cc1nc(NC(=O)N2CCC[C@H]2C(N)=O)sc1-c1ccnc(C(C)(C)C(F)(F)F)c1 [Alpelisib] (partner 2 µM) = 0.858

----------
Test system: NCI-H1734
test: relative viability (nuclei count vs DMSO), 5 days (fraction); higher = more cells survive
measurement parameters: first compound 0.1581 µM
quantity: relative viability
Please reply with the value in numeric form only.

Take a look at these entries with their results.
relative viability measured on Nc1ccn([C@@H]2O[C@H](CO)[C@@H](O)[C@@H]2O)c(=O)n1 [Cytarabine] + CS(=O)(=O)N1CCN(Cc2cc3nc(-c4cccc5[nH]ncc45)nc(N4CCOCC4)c3s2)CC1 [Pictilisib] (partner 1 µM) = 0.147

relative viability measured on Nc1ccn([C@@H]2O[C@H](CO)[C@@H](O)[C@@H]2O)c(=O)n1 [Cytarabine] + COc1cccc2cc(-c3nc([C@H]4CC[C@H](C(=O)O)CC4)n4ncnc(N)c34)[nH]c12 [OSI-027] (partner 0.5 µM) = 0.133

relative viability measured on COc1cc2nccc(Oc3ccc(NC(=O)Nc4cc(C)on4)c(Cl)c3)c2cc1OC [Tivozanib] + O=C(CCCCCCC(=O)Nc1ccccc1)NO [Vorinostat] (partner 1 µM) = 0.578

relative viability measured on COc1cc2nccc(Oc3ccc(NC(=O)Nc4cc(C)on4)c(Cl)c3)c2cc1OC [Tivozanib] + CC(=O)c1c(C)c2cnc(Nc3ccc(N4CCNCC4)cn3)nc2n(C2CCCC2)c1=O [Palbociclib] (partner 0.5 µM) = 0.336

relative viability measured on Nc1ccn([C@@H]2O[C@H](CO)[C@@H](O)[C@@H]2O)c(=O)n1 [Cytarabine] + Cc1nc(NC(=O)N2CCC[C@H]2C(N)=O)sc1-c1ccnc(C(C)(C)C(F)(F)F)c1 [Alpelisib] (partner 2 µM) = 0.139

***
relative viability measured on Nc1ccn([C@@H]2O[C@H](CO)[C@@H](O)[C@@H]2O)c(=O)n1 [Cytarabine] + NC(=O)Nc1cc(-c2cccc(F)c2)sc1C(=O)N[C@H]1CCCNC1 [AZD7762] (partner 0.2 µM) = 0.0997

relative viability measured on COc1cc2nccc(Oc3ccc(NC(=O)Nc4cc(C)on4)c(Cl)c3)c2cc1OC [Tivozanib] + CC1(C)CCC(c2ccc(Cl)cc2)=C(CN2CCN(c3ccc(C(=O)NS(=O)(=O)c4ccc(N[C@H](CCN5CCOCC5)CSc5ccccc5)c(S(=O)(=O)C(F)(F)F)c4)cc3)CC2)C1 [Navitoclax] (partner 0.5 µM) = 0.734

// data source = the supplement of paper PMC10307832
